- experimental target: human 5-HT2A receptor (Homo sapiens, UniProt P28223)
- Sequence (P28223 whole entry): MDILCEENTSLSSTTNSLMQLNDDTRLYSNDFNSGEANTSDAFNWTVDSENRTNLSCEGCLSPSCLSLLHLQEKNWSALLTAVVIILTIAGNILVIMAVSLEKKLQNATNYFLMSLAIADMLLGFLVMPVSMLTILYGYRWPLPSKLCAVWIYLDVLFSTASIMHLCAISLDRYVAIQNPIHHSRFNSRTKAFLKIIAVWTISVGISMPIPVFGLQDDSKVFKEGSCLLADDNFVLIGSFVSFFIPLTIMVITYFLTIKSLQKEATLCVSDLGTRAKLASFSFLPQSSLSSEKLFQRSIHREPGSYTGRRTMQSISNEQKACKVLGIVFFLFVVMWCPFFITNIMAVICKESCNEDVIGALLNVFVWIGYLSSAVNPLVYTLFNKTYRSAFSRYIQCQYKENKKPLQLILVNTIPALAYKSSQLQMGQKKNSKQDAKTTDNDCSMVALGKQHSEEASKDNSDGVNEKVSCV
- experiment description: 5-HT2A FLIPR assay, antagonism of DOI calcium response in CHO cells
# binning rule on IC50: band 1 (below 90 nM), band 2 (90 nM to below 600 nM), band 3 (600 nM or more)

Solved cases below.
                                   compound  category
0  O=S(=O)(c1ccccc1)c1c[nH]c2cccc(CCNC3CCCCC3)c12    band 1
1  CC1CCCN1CCc1cccc2[nH]cc(S(=O)(=O)c3ccccc3)c12 (stereo not drawn)    band 2
2  CC(C)N(C)CCc1cccc2[nH]cc(S(=O)(=O)c3ccccc3)c12    band 3
3  O=S(=O)(c1ccccc1)c1c[nH]c2cccc(CCNCc3ccccc3)c12    band 3
4  CCNCCc1cccc2[nH]cc(S(=O)(=O)c3ccccc3)c12    band 3

Request: Textbook exercise: identify the category of the compound given here, CC(NCCc1cccc2[nH]cc(S(=O)(=O)c3ccccc3)c12)C(C)(C)C (stereo not drawn) , according to its measured value.
Result: band 1

Request: Further, for CC(C)CNCCc1cccc2[nH]cc(S(=O)(=O)c3ccccc3)c12 ?
Result: band 2

Request: Would you kindly repeat that for O=S(=O)(c1ccccc1)c1c[nH]c2cccc(CCN3CCCC3)c12 ?
Result: band 2

Numbers sourced from patent US7645752B2.
